Test: Time for hydrolysis of half the starting material was studied at a temperature of 37 degrees celsius and aqueous 50 mM phosphate + 10 % p-dioxane (pH 7.6) as medium(d=no hydrolysis after 72 h)
Assay type: ADME
Details: phosphate buffer with 10% p-dioxane
RECORDED ENDPOINT: half-life

Request: Output half-life of Cc1cn([C@H]2C[C@H](O)[C@@H](COP(N)(N)=O)O2)c(=O)[nH]c1=O
Response: > 72 h

----------
Test: Time for hydrolysis of half the starting material was studied at a temperature of 37 degrees celsius and aqueous 50 mM phosphate (pH 6) as medium
Type: ADME
Details: phosphate buffer
RECORDED ENDPOINT: half-life

Request: Output half-life of Cc1cn([C@H]2C[C@H](O)[C@@H](COP(N)(N)=O)O2)c(=O)[nH]c1=O
Response: > 72 h

Origin of measurements: ChEMBL document CHEMBL1122551
